Tested on: SW-620
Test: NCI tumour cell line growth inhibition, 48 h
Activity calls are given as the source filed them. Cut-off read from the data, not from the text of the source: active = GI50 up to about 1.1 µM and inactive = higher.
Recorded GI50 values for a group of compounds are listed next.
testReadout: GI50

1) COc1ccc(-c2cc(=O)c3c(OC)c(OC)c(OC)c(OC)c3o2)c(OC)c1: 31.1 µM (inactive)
2) CN1C(=O)CSC1=S: > 100 µM (inactive)
3) COC(=O)/C=C(/C=C1/C(C#N)=C(N)N(c2ccc(Cl)cc2)C1(C)/C(=C\C(=O)OC)C(=O)OC)C(=O)OC (stereo unspecified): 15.9 µM (inactive)
4) CC(=O)OCC1OC(OC2C(CSC3OC(COC(C)=O)C(OC(C)=O)C(OC(C)=O)C3OC(C)=O)OC(OC(C)=O)C(OC(C)=O)C2OC(C)=O)C(OC(C)=O)C(OC(C)=O)C1OC(C)=O (stereo unspecified): > 100 µM (inactive)
5) CN(C)CCOC1(Cc2ccc(Cl)cc2Cl)CCC(C(C)(C)C)CC1 (stereo unspecified): 1.51 µM (inactive)
6) Cc1cc2nc3c(C(O)CO)nn(-c4ccccc4)c3nc2cc1C (stereo unspecified): 20.5 µM (inactive)
7) CC(=O)ONC(C(=O)C(C)(C)C)C(=O)C(C)(C)C: > 100 µM (inactive)
8) NNc1ncnc2cccc(Cl)c12: > 100 µM (inactive)
9) COc1c(Cl)cc(NC(=S)C#N)cc1Cl: 31.3 µM (inactive)
10) CCOC(O)C(F)(F)F (stereo unspecified): > 100 µM (inactive)
11) Fc1ccc(C(OCCN2CC3CC2CN3CCCc2ccccc2)c2ccc(F)cc2)cc1 (stereo unspecified): 6.53 µM (inactive)
12) NC(=O)NC(=O)c1cnccn1: > 100 µM (inactive)
13) CC(C)(C)OC(=O)C(C1NC(C(=O)O)C(C)(C)S1)N1C(=O)c2ccccc2C1=O (stereo unspecified): > 100 µM (inactive)
14) CCOC(=O)NC(Nc1ccc(F)c(F)c1)(C(=O)OCC)C(F)(F)F (stereo unspecified): 17.4 µM (inactive)
15) O=C1CC2c3ccccc3CCC2c2ccccc21 (stereo unspecified): 26.5 µM (inactive)
16) CCOC(=O)C1(C(=O)OCC)CC(=O)[C@@]2(C1)OCC[C@H]1OC(=O)C[C@H]12: > 100 µM (inactive)
17) Cc1ccc2nc(N/N=C/c3sccc3C)cc(C)c2c1: > 100 µM (inactive)
18) Cc1ccc(S(=O)(=O)C2c3nc4ccccc4cc3-c3nc4ccccc4nc32)cc1 (stereo unspecified): > 100 µM (inactive)
19) COc1cc2c(cc1C)NC(=O)/C2=C\c1ccncc1: 4.49 µM (inactive)
20) Cn1c(=O)n2n(c1=O)C(C)(C13CC4CC(CC(C4)C1)C3)C13CC4CC(CC1C4)CC23 (stereo unspecified): > 100 µM (inactive)
21) COc1cc2c(cc1OC)C(=O)C1(C2)[C@H](c2ccccc2)C2C(=O)c3cc(OC)c(OC)cc3C2[C@H]1c1ccccc1 (stereo partly specified): > 100 µM (inactive)

* * *

Tested on: HT-29
Experiment: NCI tumour cell line growth inhibition, 48 h
Calls of active or inactive are those of the source. Cut-off read from the data, not from the text of the source: active = GI50 up to about 1.1 µM and inactive = higher.
testReadout: GI50

1) CC1=NN(c2cccc(Cl)c2)C2(SCC(=O)N2c2nc3ccccc3s2)/C1=C\c1ccc(N(C)C)cc1 (centres undefined): > 100 µM (inactive)
2) CC(C)=CCc1c2c(c3occ(-c4ccc(O)cc4)c(=O)c3c1O)CC(C(C)(C)O)O2 (centres undefined) [SENEGALENSIN]: 12 µM (inactive)
3) N/C(=N\c1ccc(Cl)cc1)NS(=O)(=O)c1ccc(S(=O)(=O)c2ccccc2)s1: 21.7 µM (inactive)
4) O=C(NCc1ccc2ccc3cccnc3c2n1)c1ccc[n+](Cc2ccccc2)c1: 98.6 µM (inactive)
5) CCOC(O)C(F)(F)F (centres undefined): > 100 µM (inactive)
6) CN(C)c1cccc2c1C(=O)C=CC21CCc2ccc(N(C)C)c3c(N(C)C)ccc1c23 (centres undefined): 13.1 µM (inactive)
7) CC1(C)CNC(=O)C2(CCCO2)CNC(C)(C)CNC(=O)C2(CCCO2)CN1 (centres undefined): > 10 µM (inactive)
8) COc1nc2ncc([C@@H](O)[C@H](O)CO)nc2c(=O)n1C: > 100 µM (inactive)
9) CN(Cc1c2ccccc2cc2ccccc12)S(=O)(=O)c1ccc(-c2c3nc(c(-c4ccc(S(=O)(=O)N(C)Cc5c6ccccc6cc6ccccc56)cc4)c4ccc([nH]4)c(-c4ccc(S(=O)(=O)N(C)Cc5c6ccccc6cc6ccccc56)cc4)c4nc(c(-c5ccc(S(=O)(=O)N(C)Cc6c7ccccc7cc7ccccc67)cc5)c5ccc2[nH]5)C=C4)C=C3)cc1: > 100 µM (inactive)
10) O=C1c2ccc3c4ccccc4n(Cc4ccccc4)c3c2C(=O)N1c1ccccc1: 16.4 µM (inactive)
11) Clc1ccc(CNc2nc3ccccc3nc2-c2cccs2)c(Cl)c1: 61 µM (inactive)
12) Cc1[nH]c2ccccc2c1C1=NO/C(=N\O)C(c2c(C)[nH]c3ccccc23)C1 (centres undefined): 22.7 µM (inactive)
13) CCN1CC2=C(N=c3s/c(=C\c4ccc(Cl)cc4)c(=O)n3C2c2ccc(Cl)cc2)/C(=C/c2ccc(Cl)cc2)C1 (centres undefined): > 100 µM (inactive)
14) O=C(CNc1c(Cl)cccc1Cl)NC1C=Cc2ccc(S(=O)(=O)Nc3c(Cl)cccc3Cl)cc2C1=O (centres undefined): 50.2 µM (inactive)
15) C/C(COc1ccccc1)=N\NC(N)=S: 61.9 µM (inactive)
16) COc1cccc(/C=C(/C(=O)O)c2cc(OC)c(OC)c(OC)c2)c1: > 100 µM (inactive)
17) COc1ccccc1OCc1nnc(SCC(=O)O)n1-c1ccccc1: > 100 µM (inactive)
18) C=CCCCCCCCC(O)C1C[C@H](O)C(CCCCC)O1 (some centres undefined): 18.6 µM (inactive)
19) Cc1ccc2nc(N/N=C/c3sccc3C)cc(C)c2c1: 5.48 µM (inactive)

This collection of values is drawn from ChEMBL document CHEMBL1201862.
